Reference source: patent US20160185837A1

cAMP EC50, Batch 2: recorded values
- system-under-test: T1, rat GLP-1 receptor (rat, UniProt P32301 22-463)
- T1 sequence (looked up): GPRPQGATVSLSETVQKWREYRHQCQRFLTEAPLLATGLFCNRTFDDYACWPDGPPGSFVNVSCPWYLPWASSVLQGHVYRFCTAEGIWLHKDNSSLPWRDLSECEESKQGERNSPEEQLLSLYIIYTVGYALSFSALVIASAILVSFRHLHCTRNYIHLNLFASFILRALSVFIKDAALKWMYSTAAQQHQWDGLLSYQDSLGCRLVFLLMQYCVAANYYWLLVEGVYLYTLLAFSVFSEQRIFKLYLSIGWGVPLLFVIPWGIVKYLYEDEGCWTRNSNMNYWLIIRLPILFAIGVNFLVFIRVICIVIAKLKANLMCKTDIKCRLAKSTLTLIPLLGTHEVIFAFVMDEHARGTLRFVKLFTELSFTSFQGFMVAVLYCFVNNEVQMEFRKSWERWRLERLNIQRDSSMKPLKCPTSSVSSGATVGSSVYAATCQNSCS
- method-summary: cell-based or functional assay
Entry rule: numbers only, all in pM.

Study these solved cases before continuing.
{"binder": "IP296 (Fc fusion) YSEGTFTSDYSKLLEEEAVRCFIEWLVKGGPSSGAPPCSGGGGGGGGGGGGGGGGGGGGGGGGACPPC", "metric": "cAMP EC50, Batch 2", "numeric-readout": 28}
{"binder": "IP324 (Fc fusion) YSEGTFTSDYSKLLEEEAVRLFIEWLVKGPGGGGGSGGGGSGGGGSGGGGSGGGGSGGGGSGGGGSA", "metric": "cAMP EC50, Batch 2", "numeric-readout": 36.3}
{"binder": "IP328 (Fc fusion) YSEGTFTSDYSKLLEEEAVRLFIEWLLAGGGGGGGSGGGGSGGGGSGGGGSGGGGSGGGGSGGGGSGGGGSA", "metric": "cAMP EC50, Batch 2", "numeric-readout": 120}

Task: Report cAMP EC50, Batch 2, nothing else, for this binder: IP201 (Fc fusion) YSEGTFTSDYSKLLEEEAVRLFIEWLLAGPSSGAPPPSAAAGGSGSTASSGSGSATGGGGAATHTCPPCPAPEF
Output: 28

Task: Report cAMP EC50, Batch 2, nothing else, for this binder: IP200 (Fc fusion) YSQGTFTSDYSKILEEEAVRLFIEWLVKGPAAAGGSGSTASSGSGSATGGGGAATHTCPPCPAPEF
Output: 28
